Kindly supply the reported Bliss excess values for the records listed here.
System: COLO-684 (Endometrial Carcinoma)
assay_name: Bliss excess, mean over the matrix (fraction); higher = more synergy
Number only, please.

Query string: May I ask what Bliss excess has been recorded for C[C@@H](Nc1cc(F)cc(F)c1)c1cc(C(=O)N(C)C)cc2c(=O)cc(N3CCOCC3)oc12 [AZD8186] + CC(=O)c1c(C)c2cnc(Nc3ccc(N4CCNCC4)cn3)nc2n(C2CCCC2)c1=O [Palbociclib] (first compound max 10 µM, 7x7, partner max 10 µM) ?
Result string: 0.0174

Query string: May I ask what Bliss excess has been recorded for CN(C)CCCOc1ccc(-c2ccc3ncc4c(c3c2)n(C2CCOCC2)c(=O)n4C)cn1 [AZD0156] + CCN(CCO)CCCOc1ccc2c(Nc3cc(CC(=O)Nc4cccc(F)c4)[nH]n3)ncnc2c1 [AZD2811] (first compound max 1 µM, 7x7, partner max 1 µM) ?
Result string: -0.0036

* * *

System: SNU-175 (Colorectal Carcinoma)
assay_name: combination Emax (second highest fraction inhibited in the dose matrix, 72 h); higher = more inhibition; extreme values may be limits of the assay
quantity_kind: combination Emax
Number only, please.

Query string: Form field: combination Emax recorded for CN(CCO)CC[C@H](CSc1ccccc1)Nc1ccc(S(=O)(=O)NC(=O)c2ccc(N3CCC([C@@H](O)c4ccccc4-c4ccc(Cl)cc4)CC3)cc2)cc1S(=O)(=O)C(F)(F)F [AZD4320] + C[C@@H]1COCCN1C2=NC(=NC(=C2)C3(CC3)[S@](=N)(=O)C)C4=C5C=CNC5=NC=C4 [AZD6738] (first compound max 1 µM, 7x7, partner max 10 µM) with SNU-175 (Colorectal Carcinoma) (enter value)
Result string: 0.936

Query string: Form field: combination Emax recorded for CCN(CCO)CCCOc1ccc2c(Nc3cc(CC(=O)Nc4cccc(F)c4)[nH]n3)ncnc2c1 [AZD2811] + C[C@@H]1COCCN1C2=NC(=NC(=C2)C3(CC3)[S@](=N)(=O)C)C4=C5C=CNC5=NC=C4 [AZD6738] (first compound max 1 µM, 7x7, partner max 10 µM) with SNU-175 (Colorectal Carcinoma) (enter value)
Result string: 0.578

Query string: Form field: combination Emax recorded for CS(=O)(=O)CCNCc1ccc(-c2ccc3ncnc(Nc4ccc(OCc5cccc(F)c5)c(Cl)c4)c3c2)o1 [Lapatinib] + C[C@@H](Oc1cc(-c2cnn(C3CCNCC3)c2)cnc1N)c1c(Cl)ccc(F)c1Cl [Crizotinib] (first compound max 10 µM, 7x7, partner max 10 µM) with SNU-175 (Colorectal Carcinoma) (enter value)
Result string: 0.917

* * *

Tested on: EB-3 (Burkitt's Lymphoma)
assay_name: Bliss excess, mean over the matrix (fraction); higher = more synergy
quantity_kind: Bliss excess
Number only, please.

Query string: Form field: Bliss excess recorded for C=CCn1c(=O)c2cnc(Nc3ccc(N4CCN(C)CC4)cc3)nc2n1-c1cccc(C(C)(C)O)n1 [AZD1775] + Nc1ccn([C@@H]2O[C@H](CO)[C@@H](O)C2(F)F)c(=O)n1 [Gemcitabine] (first compound max 1 µM, partner max 0.3 µM) with EB-3 (Burkitt's Lymphoma) (enter value)
Result string: 0.0105

Query string: Form field: Bliss excess recorded for COc1nnc2ccc(N3CCC(c4ccc(OCCN5CCN(C)C(=O)[C@H]5C)cc4)CC3)nn12 [AZD5153] + C[C@@H]1COCCN1C2=NC(=NC(=C2)C3(CC3)[S@](=N)(=O)C)C4=C5C=CNC5=NC=C4 [AZD6738] (first compound max 1 µM, 7x7, partner max 10 µM) with EB-3 (Burkitt's Lymphoma) (enter value)
Result string: -0.104

Query string: Form field: Bliss excess recorded for Cc1c2c(nn1C)CSCc1cc(n(C)n1)CSc1cc(c3ccccc3c1)OCCCc1c(C(=O)O)n(C)c3c-2c(Cl)ccc13 [AZD5991] + CS(=O)(=O)CCNCc1ccc(-c2ccc3ncnc(Nc4ccc(OCc5cccc(F)c5)c(Cl)c4)c3c2)o1 [Lapatinib] (first compound max 1 µM, 7x7, partner max 10 µM) with EB-3 (Burkitt's Lymphoma) (enter value)
Result string: -0.0068

Query string: Form field: Bliss excess recorded for CN(C)CCCOc1ccc(-c2ccc3ncc4c(c3c2)n(C2CCOCC2)c(=O)n4C)cn1 [AZD0156] + C=CCn1c(=O)c2cnc(Nc3ccc(N4CCN(C)CC4)cc3)nc2n1-c1cccc(C(C)(C)O)n1 [AZD1775] (first compound max 1 µM, partner max 1 µM) with EB-3 (Burkitt's Lymphoma) (enter value)
Result string: -0.0289

Query string: Form field: Bliss excess recorded for CC(=O)Nc1cccc(-n2c(=O)n(C3CC3)c(=O)c3c(Nc4ccc(I)cc4F)n(C)c(=O)c(C)c32)c1 [Trametinib] + Cc1nc(-c2cn3c(n2)-c2ccc(-c4cnn(C(C)(C)C(N)=O)c4)cc2OCC3)n(C(C)C)n1 [Taselisib] (first compound max 1 µM, 7x7, partner max 10 µM) with EB-3 (Burkitt's Lymphoma) (enter value)
Result string: 0.0489

Query string: Form field: Bliss excess recorded for C[C@@H](Oc1cc(-c2cnn(C3CCNCC3)c2)cnc1N)c1c(Cl)ccc(F)c1Cl [Crizotinib] + CC1=C(C(=CC=C1)Cl)NC(=O)C2=CN=C(S2)NC3=CC(=NC(=N3)C)N4CCN(CC4)CCO [Dasatinib] (first compound max 10 µM, 7x7, partner max 2 µM) with EB-3 (Burkitt's Lymphoma) (enter value)
Result string: -0.0181

Query string: Form field: Bliss excess recorded for C[C@@H](Nc1cc(F)cc(F)c1)c1cc(C(=O)N(C)C)cc2c(=O)cc(N3CCOCC3)oc12 [AZD8186] + C1CN(CCC1(C(=O)N[C@@H](CCO)C2=CC=C(C=C2)Cl)N)C3=NC=NC4=C3C=CN4 [AZD5363] (first compound max 10 µM, 7x7, partner max 10 µM) with EB-3 (Burkitt's Lymphoma) (enter value)
Result string: -0.0203

Query string: Form field: Bliss excess recorded for CS(=O)(=O)CCNCc1ccc(-c2ccc3ncnc(Nc4ccc(OCc5cccc(F)c5)c(Cl)c4)c3c2)o1 [Lapatinib] + NC1(c2ccc(-c3nc4ccn5c(=O)[nH]nc5c4cc3-c3ccccc3)cc2)CCC1 [MK-2206] (first compound max 10 µM, 7x7, partner max 10 µM) with EB-3 (Burkitt's Lymphoma) (enter value)
Result string: -0.0251

* * *

Test system: COLO-684 (Endometrial Carcinoma)
assay_name: combination Emax (second highest fraction inhibited in the dose matrix, 72 h); higher = more inhibition; extreme values may be limits of the assay
Classification field: Condition met = combination Emax at or over 0.5; Condition not met = combination Emax under 0.5.

Query string: Quick check: does Cc1c2c(nn1C)CSCc1cc(n(C)n1)CSc1cc(c3ccccc3c1)OCCCc1c(C(=O)O)n(C)c3c-2c(Cl)ccc13 [AZD5991] + CS(=O)(=O)CCNCc1ccc(-c2ccc3ncnc(Nc4ccc(OCc5cccc(F)c5)c(Cl)c4)c3c2)o1 [Lapatinib] (first compound max 1 µM, 7x7, partner max 10 µM) have combination Emax greater than or equal to 0.5?
Result string: Condition not met

Query string: Quick check: does Cn1cnc2c(F)c(Nc3ccc(Br)cc3Cl)c(C(=O)NOCCO)cc21 [Selumetinib] + C[C@@H]1COCCN1C2=NC(=NC(=C2)C3(CC3)[S@](=N)(=O)C)C4=C5C=CNC5=NC=C4 [AZD6738] (first compound max 10 µM, 7x7, partner max 10 µM) have combination Emax greater than or equal to 0.5?
Result string: Condition met

Query string: Quick check: does CN(C)CCCOc1ccc(-c2ccc3ncc4c(c3c2)n(C2CCOCC2)c(=O)n4C)cn1 [AZD0156] + C[C@@H]1COCCN1C2=NC(=NC(=C2)C3(CC3)[S@](=N)(=O)C)C4=C5C=CNC5=NC=C4 [AZD6738] (first compound max 1 µM, 7x7, partner max 10 µM) have combination Emax greater than or equal to 0.5?
Result string: Condition met

Query string: Quick check: does COc1cc2ncnc(Nc3ccc(F)c(Cl)c3)c2cc1OCCCN1CCOCC1 [Gefitinib] + CC(C)n1c(=O)n(C)c2cnc3cc(F)c(-c4ccc(OCCCN5CCCCC5)nc4)cc3c21 [AZD1390] (first compound max 10 µM, 7x7, partner max 0.3 µM) have combination Emax greater than or equal to 0.5?
Result string: Condition not met

* * *

Test system: RMG-I (Ovarian Carcinoma)
assay_name: combination Emax (second highest fraction inhibited in the dose matrix, 72 h); higher = more inhibition; extreme values may be limits of the assay
quantity_kind: combination Emax
Number only, please.

Query string: May I ask what combination Emax has been recorded for COc1cccc(OCCCN)c1-c1cc(Nc2cnc(C#N)cn2)n[nH]1 [Prexasertib] + Cc1cc2ncnn2cc1Nc1ncc2c(n1)n(C1CCOCC1)c(=O)n2C [AZD7648] (first compound max 1 µM, 7x7, partner max 10 µM) ?
Result string: 0.678

Query string: May I ask what combination Emax has been recorded for Cc1c2c(nn1C)CSCc1cc(n(C)n1)CSc1cc(c3ccccc3c1)OCCCc1c(C(=O)O)n(C)c3c-2c(Cl)ccc13 [AZD5991] + CS(=O)(=O)CCNCc1ccc(-c2ccc3ncnc(Nc4ccc(OCc5cccc(F)c5)c(Cl)c4)c3c2)o1 [Lapatinib] (first compound max 1 µM, 7x7, partner max 10 µM) ?
Result string: 0.532

Query string: May I ask what combination Emax has been recorded for CN(CCO)CC[C@H](CSc1ccccc1)Nc1ccc(S(=O)(=O)NC(=O)c2ccc(N3CCC([C@@H](O)c4ccccc4-c4ccc(Cl)cc4)CC3)cc2)cc1S(=O)(=O)C(F)(F)F [AZD4320] + CS(=O)(=O)CCNCc1ccc(-c2ccc3ncnc(Nc4ccc(OCc5cccc(F)c5)c(Cl)c4)c3c2)o1 [Lapatinib] (first compound max 1 µM, 7x7, partner max 10 µM) ?
Result string: 0.972
